# Target under test: mGlyT-1b (Mus musculus)
# Construct: host or cells: Flp-in-CHO cells, stably transfected
# Sequence (P28571 1-651 isoform P28571-2): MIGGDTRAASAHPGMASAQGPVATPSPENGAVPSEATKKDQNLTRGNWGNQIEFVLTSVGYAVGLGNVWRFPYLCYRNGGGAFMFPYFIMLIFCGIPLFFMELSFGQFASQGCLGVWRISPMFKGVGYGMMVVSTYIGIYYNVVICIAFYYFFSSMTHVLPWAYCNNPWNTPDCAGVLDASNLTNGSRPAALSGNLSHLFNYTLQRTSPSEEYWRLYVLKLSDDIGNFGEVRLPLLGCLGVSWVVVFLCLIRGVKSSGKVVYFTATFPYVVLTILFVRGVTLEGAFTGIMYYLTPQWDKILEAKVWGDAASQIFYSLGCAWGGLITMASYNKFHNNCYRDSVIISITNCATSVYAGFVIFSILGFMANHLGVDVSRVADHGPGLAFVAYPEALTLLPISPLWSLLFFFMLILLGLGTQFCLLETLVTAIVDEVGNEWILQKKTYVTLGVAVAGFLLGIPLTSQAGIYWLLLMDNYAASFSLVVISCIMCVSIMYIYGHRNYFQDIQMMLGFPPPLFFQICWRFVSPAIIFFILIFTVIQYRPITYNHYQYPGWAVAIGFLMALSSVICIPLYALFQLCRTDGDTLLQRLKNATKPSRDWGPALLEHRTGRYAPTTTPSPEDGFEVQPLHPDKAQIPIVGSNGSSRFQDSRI
# Measurement protocol: Glycine uptake inhibition assay (mGlyT-1b)
# Type: cell-based
# Condition notes: [3H]-glycine uptake, Flp-in-CHO cells transfected with mGlyT-1b cDNA, 20 min preincubation at 22° C.; read-out: IC50 (μM) at GlyT-1
Assay endpoint: IC50 (µM)

Example entries begin here.
| Compound | Assay endpoint | Reading unit | Recorded result |
| --- | --- | --- | --- |
| CC(=O)c1ccc(OC2CCN(C(=O)c3cc(S(C)(=O)=O)ccc3OC(C)C)CC2)c(F)c1 [Example 5] | IC50 | µM | 0.93 |
| CC(C)Oc1ccc(S(C)(=O)=O)cc1C(=O)N1CCC(Oc2ccc3ccccc3c2)C1 (racemic) [Example 18] | IC50 | µM | 0.87 |
| CC(C)Oc1ccc(S(C)(=O)=O)cc1C(=O)N1CCC(Oc2ccc([N+](=O)[O-])cc2)CC1 [Example 4] | IC50 | µM | 1 |
| CNS(=O)(=O)c1ccc(OC2CCCC2)c(C(=O)N2CCC(Oc3ccc(C(F)(F)F)cc3)C2)c1 (centres unmarked) [Example 26] | IC50 | µM | 0.109 |
| C[C@H](Oc1ccc(S(C)(=O)=O)cc1C(=O)N1CC(Oc2ccc(C(F)(F)F)cc2)C1)C(F)(F)F [Example 23] | IC50 | µM | 0.39 |

I: CS(=O)(=O)c1ccc(N2CCOCC2)c(C(=O)N2CCC(Oc3ccc(C(F)(F)F)cc3)C2)c1 (centres unmarked) [Example 25]
II: CC(C)Oc1ccc(S(C)(=O)=O)cc1C(=O)N1CCC(Oc2ccc(C(F)(F)F)cc2)C1 (racemic) [Example 13]
Q: Among I and II , which shows a numerically higher IC50 result? # respond with the chosen item's label
A: II
(II: 0.55 µM, I: 0.078 µM)

====

# Target under test: mGlyT-1b (Mus musculus)
# Construct: host or cells: Flp-in-CHO cells, stably transfected
# Measurement protocol: Glycine uptake inhibition assay (mGlyT-1b)
# Assay type: cell-based
# Condition notes: [3H]-glycine uptake, Flp-in-CHO cells transfected with mGlyT-1b cDNA, 20 min preincubation at 22° C.; read-out: IC50 (μM) at GlyT-1
Assay endpoint: IC50 (µM)

| Compound | Reading unit | Recorded result |
| --- | --- | --- |
| C[C@@H](Oc1ccc(S(C)(=O)=O)cc1C(=O)N1CC(Oc2ccc(C(F)(F)F)cc2)C1)C(F)(F)F [Example 24] | µM | 0.84 |
| CC(C)Oc1ccc(S(C)(=O)=O)cc1C(=O)N1CC(Oc2cccc(C(F)(F)F)c2)C1 [Example 22] | µM | 0.7 |
| CC(C)Oc1ccc(S(C)(=O)=O)cc1C(=O)N1CCC(Oc2cc(C(F)(F)F)ccc2F)CC1 [Example 8] | µM | 0.63 |
| CC(C)Oc1ccc(S(C)(=O)=O)cc1C(=O)N1CC(Oc2ccc(C(F)(F)F)cc2)C1 [Example 21] | µM | 0.87 |
